Numbers sourced from the RNAGym collection of RNA variant scans (doi:10.1073/pnas.2313332121).

B1: TPR 5TU (parent)
chain: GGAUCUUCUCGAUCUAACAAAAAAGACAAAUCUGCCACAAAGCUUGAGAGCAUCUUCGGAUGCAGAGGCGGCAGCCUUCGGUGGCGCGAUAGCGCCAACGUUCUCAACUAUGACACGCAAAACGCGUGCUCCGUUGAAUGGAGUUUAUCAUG

- Variants of: B1
- EXPERIMENT: polymerase ribozyme fitness, log enrichment relative to wild type (log ratio); higher = more active; in vitro selection for triplet polymerase activity
Variants at the floor of the assay were thinned out.
ENDPOINT_NAME: polymerase ribozyme fitness (log ratio)

Recorded polymerase ribozyme fitness (log ratio), per entry:
MUTANT_NAME | polymerase ribozyme fitness (log ratio)
C10U C35U | -3.04
U55A G81A C87U U135A U146A | -2.11

Give measured polymerase ribozyme fitness (log ratio) for every item shown.
1. C36A G46C C79U G88U U151A
2. G59A C93U

1: ≤ -4.2; 2: -3.33

I have 6 variants here; please give me polymerase ribozyme fitness (log ratio) for each one.
1. A98G A115G U135G
2. C27U A37C C51U C57U C95U C125A
3. C14G A28G U31A C32U G34A G42C U55G G94U
4. A40G G67U C85A A98U U144C U145A
5. A12C G71U C93U A97G C103U C131G G141C
6. C14G A19U G59C G81U C95U G141A

1. -3.81
2. -4.06
3. ≤ -4.2
4. ≤ -4.2
5. ≤ -4.2
6. -3.74

Go through the items and report each one's polymerase ribozyme fitness (log ratio).
1. A12G A20G A60G
2. A22U C96A
3. A47C C95U

1. -0.113
2. -0.026
3. 0.141
